study system: tetanus neurotoxin (TeNT), authentic tetanus holotoxin (Clostridium tetani, UniProt P04958 2-1315)
Sequence (P04958 2-457 limits assumed, chain 1 of 2): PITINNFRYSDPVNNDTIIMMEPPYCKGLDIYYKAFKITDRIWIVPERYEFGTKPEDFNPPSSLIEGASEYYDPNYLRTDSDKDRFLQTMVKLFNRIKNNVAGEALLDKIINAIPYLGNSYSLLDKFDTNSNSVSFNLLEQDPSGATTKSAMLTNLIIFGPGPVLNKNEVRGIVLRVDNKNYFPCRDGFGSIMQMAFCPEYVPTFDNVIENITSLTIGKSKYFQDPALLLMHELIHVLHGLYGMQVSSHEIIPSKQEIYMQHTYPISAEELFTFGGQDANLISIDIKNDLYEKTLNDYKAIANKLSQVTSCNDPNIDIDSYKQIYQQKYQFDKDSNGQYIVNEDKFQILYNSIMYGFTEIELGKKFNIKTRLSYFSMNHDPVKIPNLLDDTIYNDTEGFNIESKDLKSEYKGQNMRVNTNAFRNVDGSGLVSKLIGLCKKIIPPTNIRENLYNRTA
Sequence (P04958 458-1315 limits assumed, chain 2 of 2): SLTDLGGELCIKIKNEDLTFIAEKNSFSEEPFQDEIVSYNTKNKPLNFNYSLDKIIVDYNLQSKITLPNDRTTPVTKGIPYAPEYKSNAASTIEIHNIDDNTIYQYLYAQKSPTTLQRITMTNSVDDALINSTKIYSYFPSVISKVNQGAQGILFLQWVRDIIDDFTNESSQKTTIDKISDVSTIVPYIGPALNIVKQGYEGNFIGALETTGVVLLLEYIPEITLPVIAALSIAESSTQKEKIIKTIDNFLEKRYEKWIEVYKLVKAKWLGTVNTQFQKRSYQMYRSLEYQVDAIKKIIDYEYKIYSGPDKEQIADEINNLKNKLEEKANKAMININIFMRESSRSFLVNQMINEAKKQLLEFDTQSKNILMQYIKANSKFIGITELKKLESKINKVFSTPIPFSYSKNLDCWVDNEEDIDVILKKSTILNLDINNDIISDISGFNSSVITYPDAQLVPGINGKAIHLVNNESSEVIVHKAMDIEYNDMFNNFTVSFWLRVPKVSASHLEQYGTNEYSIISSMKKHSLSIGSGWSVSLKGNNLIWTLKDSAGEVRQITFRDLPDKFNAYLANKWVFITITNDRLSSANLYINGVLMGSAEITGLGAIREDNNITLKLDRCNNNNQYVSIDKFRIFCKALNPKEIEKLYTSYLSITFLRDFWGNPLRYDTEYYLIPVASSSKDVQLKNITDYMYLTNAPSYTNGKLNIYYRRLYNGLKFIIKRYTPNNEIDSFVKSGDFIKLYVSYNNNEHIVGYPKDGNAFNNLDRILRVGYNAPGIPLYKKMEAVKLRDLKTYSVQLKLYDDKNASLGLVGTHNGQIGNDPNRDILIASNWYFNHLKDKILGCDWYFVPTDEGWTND
assay comment: ELISA, TeNT captured with coated mAb 6E7
Provide the recorded absorbance at 450 nm for the entries that follow.
Could you keep your reply to the number by itself?

query: Item under review: SVT16L (VHH) VHH: QVQLQESGGGSVQAGDSLRLSCAASGRTISNYAMGWFRQAPGKQREFVAAISRSDNTYYTDSVKGRFTISRDNAKNTLYLQMNSLKPEETAVYYCAADPNLMYESKWKYRALEAWGQGTLVTVSS . Reported absorbance at 450 nm?
result: 1.13

query: Item under review: SVT03L (VHH) VHH: QVQLQQSGGGSVQTGDSLTLSCTASGGSLNSYFVGWFRQSGGKEREFVSVIARTGRSTSYADSVKGRFTISRDNAANTVFLTMNNLRPDDTAIYYCAAVGRPGVLHLTQSYDYWGQGTQVTVSS . Reported absorbance at 450 nm?
result: 1.32

query: Item under review: SVT02L (VHH) VHH: QVQLQQSGGGSVQAGGSLRLSCVGPQRTFSTYGMGWFRQAPGKEREFVAGINYKGDTTYYADSVKGRFTISRDNAKNTLYLQMDSLKPEDRAVYQCARKGGLGGDYRDAGQYRYWGQGTQVTVSS . Reported absorbance at 450 nm?
result: 1.19

query: Item under review: SVT15L-3FW4M (VHH) VHH: QVQLQESGGGLVQTGGSLRLSCRASGRAFANYHFGWFRQAPGKDREFVASISWKGGSTYYANFALGRFTSSVDRAESSVYLQMSGLTPEDTATYYCAAHDGGDWNYHTGMDYWGQGTQVTVSS . Reported absorbance at 450 nm?
result: 0.236
